Every entry's value here was drawn from patent US12533339B2.

# study target: E6 WT/E6AP (Human papillomavirus type 16)
# assay comment: biochemical
# Assay type: binding
# condition notes: 100 μM compound, WT 16E6
measurement name: inhibition at 100 µM (%)
Just the number in %, nothing appended.

molecule | inhibition at 100 µM (%)
CC1CN(C(=O)CN2CCc3sccc3C2c2cccc(F)c2)CCN1C(=O)CCl (stereo not shown) | 63
Cc1sc2nc(CCc3ccccc3)nc(N3CCN(C(=O)CCl)CC3)c2c1C | 106
COc1ccc(C2c3ccsc3CCN2CC(=O)N2CCN(C(=O)CCl)C(C)C2)cc1 (stereo not shown) | 52

For the next question, use this molecule.
# get_value(readout='inhibition at 100 µM', item= CCCCc1nc(N2CCN(C(=O)CCl)CC2)c2c3c(sc2n1)CC(C)CC3 (stereo not shown) )
113

----------
# study target: E6 WT/E6AP (Human papillomavirus type 16, UniProt P03126)
# Sequence (P03126 8-158): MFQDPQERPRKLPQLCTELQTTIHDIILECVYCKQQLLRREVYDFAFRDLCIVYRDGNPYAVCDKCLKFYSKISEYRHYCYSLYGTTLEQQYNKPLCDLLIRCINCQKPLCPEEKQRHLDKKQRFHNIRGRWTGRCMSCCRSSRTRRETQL
# assay comment: biochemical
# Type: binding
# condition notes: 10 μM compound, WT 16E6
measurement name: inhibition at 10 µM (%)
Report the value in % with no unit label.

Previously resolved entries follow.
compound | test result
O=C(CCl)N1CCCN(C(=O)CN2CCc3sccc3C2c2cccc(F)c2)CC1 (stereo not drawn) [EIN-119] | 33
C=CC(=O)N1CCN(c2nc(N(C)Cc3ccccc3)nc3sc4c(c23)CCCC4)CC1 [EIN-139] | 13
O=C(CCl)N1CCN(c2nc(Cc3ccccc3)nc3sc4c(c23)CCCC4)CC1 [EIN-127] | 57

// returns reported inhibition at 10 µM for input Cc1ccccc1C1c2ccsc2CCN1C(C)C(=O)N1CCCN(C(=O)CCl)CC1 (stereo not drawn) [EIN-117]
17

Value lookup for inhibition at 10 µM; key = C=CC(=O)N1CCN(c2nc(CCc3cccc(OC)c3)nc3sc4c(c23)CCCC4)CC1 [EIN-143]
44

----------
Collected log10 of IC50 values appear next to each entry.
# study target: E6 WT/E6AP (Human papillomavirus type 16, UniProt P03126)
# assay comment: biochemical
# Type: binding
# condition notes: at 24 h; 2 μM E6 WT pre-incubated with compound
Note the log scale: values are log10 of IC50 expressed in µM.

Tell me the measured log10 of IC50 of "C=CC(=O)N1CCN(c2nc(CCc3ccc(OC)cc3)nc3sc4c(c23)CCCC4)CC1" , please.
0.20

So what does the record say about log10 of IC50 for "C=CC(=O)N1CCN(c2nc(CCc3cccc(F)c3)nc3sc4c(c23)CCCC4)CC1" ?
0.69

# lookup: log10 of IC50 of "C=CC(=O)N1CCN(c2nc(CCc3ccc(F)cc3)nc3sc4c(c23)CCCC4)CC1"
0.43

Data request, read-out log10 of IC50, for "C=CC(=O)N1CCN(c2nc(CCc3cccc(OC)c3)nc3sc4c(c23)CCCC4)CC1"
0.40

Field request: log10 of IC50 | item: "C=CC(=O)N1CCN(c2nc(Cc3ccccc3)nc3sc4c(c23)CCCC4)CC1"
1.04

What value of log10 of IC50 has been reported for the following molecule? "C=CC(=O)N1CCN(c2nc(NCc3ccccc3)nc3sc4c(c23)CCCC4)CC1"
1.51

Requested field: log10 of IC50. Item: "C=CC(=O)N1CCN(c2nc(CCc3ccccc3F)nc3sc4c(c23)CCCC4)CC1"
0.61
